The reported measurements were obtained from ChEMBL document CHEMBL1944602.

Molecular target: NAD-dependent protein deacetylase sirtuin-1 (Homo sapiens) (UniProt Q96EB6)
Sequence (whole entry): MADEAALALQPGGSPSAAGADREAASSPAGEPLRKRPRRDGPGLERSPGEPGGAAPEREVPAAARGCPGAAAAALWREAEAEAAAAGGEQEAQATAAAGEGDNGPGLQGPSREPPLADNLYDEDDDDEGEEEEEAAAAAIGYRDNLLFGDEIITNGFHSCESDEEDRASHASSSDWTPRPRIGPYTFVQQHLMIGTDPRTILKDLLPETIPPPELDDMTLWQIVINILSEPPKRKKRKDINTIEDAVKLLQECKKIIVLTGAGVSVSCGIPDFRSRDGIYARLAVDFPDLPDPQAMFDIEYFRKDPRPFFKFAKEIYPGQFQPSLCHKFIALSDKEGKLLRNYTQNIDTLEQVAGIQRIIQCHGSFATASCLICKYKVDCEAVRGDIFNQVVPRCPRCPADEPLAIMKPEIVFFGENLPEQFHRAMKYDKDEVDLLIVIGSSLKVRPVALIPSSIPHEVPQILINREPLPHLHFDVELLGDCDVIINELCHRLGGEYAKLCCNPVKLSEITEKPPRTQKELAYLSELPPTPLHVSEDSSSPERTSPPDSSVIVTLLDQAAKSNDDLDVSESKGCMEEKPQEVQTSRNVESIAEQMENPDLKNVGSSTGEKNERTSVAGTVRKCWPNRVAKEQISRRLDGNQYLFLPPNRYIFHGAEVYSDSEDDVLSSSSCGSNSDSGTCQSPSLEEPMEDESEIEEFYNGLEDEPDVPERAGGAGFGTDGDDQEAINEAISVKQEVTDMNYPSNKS
Assay: Inhibition of SirT1 in human ARN8 cells assessed as p53 activation at 20 uM by beta-galactosidase reporter gene assay relative to control
Type: cell-based
Overview of reported fold change (FC) across a group of molecules:

Observe how each entry below is paired with its result.
CC(C)c1ccc(C(=O)NC(=S)Nc2ccc(NC(=O)CCCCN(C)C)cc2)cc1 : 12
CN(C)CCCCC(=O)Nc1ccc(NC(=S)NC(=O)c2ccc(Br)cc2)cc1 : 1.01
CCCCc1ccc(C(=O)NC(=S)Nc2ccc(NC(=O)CCCCN(C)C)cc2)cc1.Cl : 0.28

Return fold change (FC) measured with NAD-dependent protein deacetylase sirtuin-1 (Homo sapiens) (UniProt Q96EB6) given this molecule: CN(C)CCCCC(=O)Nc1ccc(NC(=S)NC(=O)c2ccc(C(C)(C)C)c(Br)c2)cc1
1.4
